Study System: Serine protease 1 (Bos taurus, UniProt P00760)
Sequence (P00760 whole entry): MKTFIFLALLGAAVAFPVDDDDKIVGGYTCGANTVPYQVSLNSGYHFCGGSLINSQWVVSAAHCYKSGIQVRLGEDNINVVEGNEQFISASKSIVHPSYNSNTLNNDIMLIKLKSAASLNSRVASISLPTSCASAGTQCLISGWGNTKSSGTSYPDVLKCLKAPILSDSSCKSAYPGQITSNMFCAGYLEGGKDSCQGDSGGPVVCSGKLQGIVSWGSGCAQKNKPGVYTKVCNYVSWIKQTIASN
The following compounds were reported with Ki values on Serine protease 1 (Bos taurus, UniProt P00760) in different studies.
# output: bare number, implied unit µM

CCOC(=O)[C@H]1C[C@H](C)CCN1C(=O)[C@H](CC(=O)NC[C@@H]1CCCN(C(=N)N)C1)NS(=O)(=O)c1ccc2ccccc2c1
1.1

Ki measured on CC(C)c1cc(C(C)C)c(S(=O)(=O)NC(Cc2cccc(C(N)N)c2)C(=O)N2CCN(C(=O)OCc3ccccc3)CC2)c(C(C)C)c1 (centres undefined) = 0.2

Ki measured on COc1ccc2ccc(S(=O)(=O)N(CCC(N)=O)[C@H]3CCN(Cc4cccc(C(=N)N)c4)C3=O)cc2c1 = 2

====

Study System: Serine protease 1 (Bos taurus)
Sequence (P00760 whole entry): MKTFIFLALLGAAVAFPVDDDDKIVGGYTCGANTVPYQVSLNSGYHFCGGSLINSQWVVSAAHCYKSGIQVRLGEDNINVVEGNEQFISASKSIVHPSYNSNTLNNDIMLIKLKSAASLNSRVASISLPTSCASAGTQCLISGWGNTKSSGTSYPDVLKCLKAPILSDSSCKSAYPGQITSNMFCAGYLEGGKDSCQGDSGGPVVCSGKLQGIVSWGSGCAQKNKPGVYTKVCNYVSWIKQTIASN
The following compounds were reported with pKi values on Serine protease 1 (Bos taurus) in different studies.
Please keep in mind that pKi is minus log10 of the molar concentration; only the number is needed.

Look over these answered cases.
CN(C(=O)[C@H](Cc1ccc(CN)cc1)NS(=O)(=O)c1ccc2cc3ccccc3cc2c1)C1CCCC1
5.48
Cc1c(F)c(Oc2cccc(N(C)C)c2)nc(Oc2cc(C(=N)N)ccc2N)c1F
6.40
N=C(N)c1cccc(Oc2ccc(NC(=O)Nc3ccccc3)c(Oc3cccc(C(=N)N)c3)n2)c1
7.00

So the reported pKi for CS(=O)(=O)N[C@@H](C(=O)N1CCC[C@H]1C(=O)NCc1ccc(CN)cc1)C(c1ccccc1)c1ccccc1 , on Serine protease 1 (Bos taurus), turned out to be 8.00

So the reported pKi for N=C(N)c1ccc2ccc(CN(CCc3cnc[nH]3)C(=O)c3cccc4ccccc34)cc2c1 , on Serine protease 1 (Bos taurus), turned out to be 6.42

So the reported pKi for COc1ccc(Oc2nc(Oc3cccc(C(=N)N)c3)c(F)c(C)c2F)cc1C(=O)N(C)C , on Serine protease 1 (Bos taurus), turned out to be 6.35

So the reported pKi for CC(C)CC(C(=O)O)N(Cc1ccc2ccc(C(=N)N)cc2c1)C(=O)c1cccc2ccccc12 (single isomer, unassigned) , on Serine protease 1 (Bos taurus), turned out to be 5.79

====

The following compounds were reported with pKi values on Serine protease 1 (Bos taurus, UniProt P00760) in different studies.
Please keep in mind that pKi is minus log10 of the molar concentration; only the number is needed.

Look over these answered cases.
CCCCNC(=O)[C@H](Cc1cccc(C(=N)N)c1)NS(=O)(=O)c1ccc2ccccc2c1
5.40
N=C(N)c1cccc(Oc2ccnc(Oc3cccc(C(=N)N)c3)n2)c1
6.12
N=C(N)c1cccc(C[C@H](NS(=O)(=O)c2ccc3ccccc3c2)C(=O)N2CCN(c3ccccc3)CC2)c1
7.57
CC(C)NC(=O)[C@H](Cc1cccc(C(=N)N)c1)NS(=O)(=O)c1ccc2ccccc2c1
4.80
CC(=N)N1CCC(Oc2ccc3nc(C(C)C)n(Cc4ccc5ccc(C(=N)N)cc5c4)c3c2)CC1
8.24

So the reported pKi for CC1CCN(C(=O)[C@H](Cc2cccc(C(=N)N)c2)NS(=O)(=O)C[C@]23CC[C@H](CC2=O)C3(C)C)CC1 , on Serine protease 1 (Bos taurus, UniProt P00760), turned out to be 6.20

So the reported pKi for Cc1cc(C)c(S(=O)(=O)N[C@@H](Cc2cccc(C(=N)N)c2)C(=O)N2CCC(C)CC2)c(C)c1 , on Serine protease 1 (Bos taurus, UniProt P00760), turned out to be 5.40

So the reported pKi for N[C@@H](C(=O)N1CCC[C@H]1C(=O)NCC#Cc1cnc[nH]1)C(c1ccccc1)c1ccccc1 , on Serine protease 1 (Bos taurus, UniProt P00760), turned out to be 4.60

So the reported pKi for Cc1ccc(S(=O)(=O)Nc2ccc(C[C@@H](NS(=O)(=O)c3ccc4ccccc4c3)C(=O)NCC3CCCN(C(=N)N)C3)cc2)cc1 (stereo partly drawn) , on Serine protease 1 (Bos taurus, UniProt P00760), turned out to be 4.49

So the reported pKi for N=C(N)c1cccc(Oc2cc(C(=O)O)cc(Oc3cccc(C(=N)N)c3)n2)c1 , on Serine protease 1 (Bos taurus, UniProt P00760), turned out to be 6.24

So the reported pKi for CS(=O)(=O)N[C@@H](C(=O)N1CCC[C@H]1C(=O)NCc1ccc(C(=N)N)s1)C(c1ccccc1)c1ccccc1 , on Serine protease 1 (Bos taurus, UniProt P00760), turned out to be 9.22

So the reported pKi for CS(=O)(=O)Nc1ccc(Oc2cccc(C(=N)N)c2)nc1Oc1cccc(C(=N)N)c1 , on Serine protease 1 (Bos taurus, UniProt P00760), turned out to be 5.72

So the reported pKi for Cc1c(F)c(Oc2cccc(C(=N)N)c2)nc(Oc2cc(C(=O)N(C)C)cc(O)c2O)c1F , on Serine protease 1 (Bos taurus, UniProt P00760), turned out to be 5.47

So the reported pKi for COc1ccc2ccc(S(=O)(=O)N[C@H]3CCN(Cc4ccnc(C(=N)N)c4)C3=O)cc2c1 , on Serine protease 1 (Bos taurus, UniProt P00760), turned out to be 5.55

So the reported pKi for N=C(N)NCCC[C@@H]1NC(=O)[C@@H]2CCCN2C(=O)[C@@H](c2ccccc2)NC(=O)CCCCCCCNC(=O)C1=O (single isomer, unassigned) , on Serine protease 1 (Bos taurus, UniProt P00760), turned out to be 7.96

So the reported pKi for N=C(N)c1cccc(Oc2ccc(C(=O)NCC(N)=O)c(Oc3cccc(C(=N)N)c3)n2)c1 , on Serine protease 1 (Bos taurus, UniProt P00760), turned out to be 5.70
